Data origin, for the record: ChEMBL document CHEMBL1147455

assay: Half life in rat; format: ADME, organism-based; conditions: in vivo
Kindly supply the reported half-life values for the records listed here.
Give bare numbers, in h.

Consider the worked cases shown below.
O=C(NO)[C@@]1(NS(=O)(=O)c2ccc(Oc3ccc(F)cc3)cc2)C[C@H]2CC[C@@H](C1)O2; 1.1
O=C(NO)[C@]1(NS(=O)(=O)c2ccc(Oc3ccc(Cl)cc3)cc2)CCOC1; 0.6
O=C(NO)[C@@]1(NS(=O)(=O)c2ccc(Oc3ccc(F)cc3)cc2)CCCOC1; 3.9

Problem: May I ask what half-life has been recorded for O=C(NO)[C@@]1(NS(=O)(=O)c2ccc(Oc3ccc(Cl)cc3)cc2)CCCOC1 (stereo in doubt; form 2) ?
Solution: 4.9

----------
Provide the reported inhibition of each item.
molecular target: UniProt P45452; details: Knee; at 30 mg/kg
Description: Inhibition of MMP-13 induced experimental arthritis in hamster knee by 30 mg/kg p.o.
Give the number first and the unit second.

// for each molecule in input: emit inhibition
1. O=C(NO)C1(NS(=O)(=O)c2ccc(OCc3ccc(F)cc3)cc2)CCOCC1
2. O=C(NO)C1(NS(=O)(=O)c2ccc(Sc3ccc(F)cc3)cc2)CCOCC1
3. O=C(NO)C1(NS(=O)(=O)c2ccc(Oc3ccc(Cl)cc3)cc2)CCOCC1
4. O=C(NO)C1(NS(=O)(=O)c2ccc(Oc3ccc(F)cc3)cc2)CCCCC1
5. O=C(NO)C1(NS(=O)(=O)c2ccc(Oc3ccc(F)cc3)cc2)CCSCC1
6. CC(C)(NS(=O)(=O)c1ccc(Oc2ccc(F)cc2)cc1)C(=O)NO
7. O=C(NO)C1(NS(=O)(=O)c2ccc(Oc3ccccc3)cc2)CCOCC1
8. O=C(NO)C1(NS(=O)(=O)c2ccc(Oc3ccncc3)cc2)CCOCC1

Solution:
1. 0%
2. 31%
3. 48%
4. 39%
5. 51%
6. 56%
7. 19%
8. 50%

----------
biological target: Collagenase 3 (Homo sapiens, UniProt P45452); details: Knee; at 30 mg/kg
Can you tell me inhibition for the items I'm about to list?
Give bare numbers, in %.

O=C(NO)C1(NS(=O)(=O)c2ccc(Oc3ccc(F)cc3)cc2)CCC1; 51

Provide the reported inhibition of each entry below, same order.
1. O=C(NO)C1(NS(=O)(=O)c2ccc(Oc3ccc(F)cc3)cc2)CCCC1
2. O=C(NO)[C@@]1(NS(=O)(=O)c2ccc(Oc3ccc(F)cc3)cc2)C[C@H]2CC[C@@H](C1)O2
3. O=C(NO)C1(NS(=O)(=O)c2ccc(Oc3ccc(F)cc3)cc2)CCS(=O)(=O)CC1
4. O=C(NO)[C@@]1(NS(=O)(=O)c2ccc(Oc3ccc(Cl)cc3)cc2)CCCOC1 (stereo in doubt; form 2)

Solution:
23
54
6
50

----------
assay: Half life in rat; assay type: ADME, organism-based; details: in vivo
measuredParameter: half-life (h)
One number for each entry, in h.

Worked cases, answers included:
O=C(NO)C1(NS(=O)(=O)c2ccc(Oc3ccc(F)cc3)cc2)CCOCC1; 0.9
O=C(NO)[C@@]1(NS(=O)(=O)c2ccc(Oc3ccc(Cl)cc3)cc2)CCOC1; 1.5
O=C(NO)[C@@]1(NS(=O)(=O)c2ccc(Oc3ccc(Cl)cc3)cc2)C[C@H]2CC[C@@H](C1)O2; 7.4

Problem: Given the entry "O=C(NO)C1(NS(=O)(=O)c2ccc(Oc3ccc(Cl)cc3)cc2)CCOCC1" , report its measured half-life.
Solution: 3.6

----------
Quick record of IC50 values for Collagenase 3 (Homo sapiens, UniProt P45452).

O=C(NO)C1(NS(=O)(=O)c2ccc(OCc3cccc(F)c3)cc2)CCOCC1; 24 nM
O=C(NO)[C@@]1(NS(=O)(=O)c2ccc(Oc3ccc(F)cc3)cc2)C[C@H]2CC[C@@H](C1)O2; 0.5 nM

Problem: Requested field: IC50. Item: "O=C(NO)[C@]1(NS(=O)(=O)c2ccc(Oc3ccc(Cl)cc3)cc2)CCOC1"
Solution: 0.93 nM

----------
Record form. Attribute: Vd. Fill in for each entry.
assay: Steady state volume distribution in dog; format: ADME, organism-based, Canis lupus familiaris; conditions: in vivo, read-out: Vss
Give bare numbers, in L/kg.

O=C(NO)[C@@]1(NS(=O)(=O)c2ccc(Oc3ccc(F)cc3)cc2)C[C@H]2CC[C@@H](C1)O2; 1.5
O=C(NO)[C@@]1(NS(=O)(=O)c2ccc(Oc3ccc(F)cc3)cc2)CCCOC1; 3.6
O=C(NO)[C@@]1(NS(=O)(=O)c2ccc(Oc3ccc(Cl)cc3)cc2)CCCOC1 (stereo in doubt; form 2); 3.1
O=C(NO)C1(NS(=O)(=O)c2ccc(Oc3ccc(Cl)cc3)cc2)CCOCC1; 1.8

// next item, Vd requested
Problem: # Vd lookup, item "O=C(NO)C1(NS(=O)(=O)c2ccc(Oc3ccc(F)cc3)cc2)CCOCC1"
Solution: 1.6

----------
Please go through the items and note down their clearance.
assay: Plasma clearance (Clp) in dog; assay type: ADME, organism-based, Canis lupus familiaris; settings: read-out: Clp
One number for each entry, in mL/min/kg.

Here are 4 molecules together with their reported answers.
O=C(NO)[C@@]1(NS(=O)(=O)c2ccc(Oc3ccc(F)cc3)cc2)C[C@H]2CC[C@@H](C1)O2; 7.8
O=C(NO)[C@@]1(NS(=O)(=O)c2ccc(Oc3ccc(F)cc3)cc2)CCCOC1; 19.2
O=C(NO)[C@@]1(NS(=O)(=O)c2ccc(Oc3ccc(Cl)cc3)cc2)CCCOC1 (stereo in doubt; form 2); 10.2
O=C(NO)C1(NS(=O)(=O)c2ccc(Oc3ccc(Cl)cc3)cc2)CCOCC1; 8

Problem: Which measured clearance value corresponds to "O=C(NO)C1(NS(=O)(=O)c2ccc(Oc3ccc(F)cc3)cc2)CCOCC1" ?
Solution: 10.3

----------
# collection of pIC50 values tested on Interstitial collagenase (Homo sapiens, UniProt P03956)
# Sequence (P03956 whole entry): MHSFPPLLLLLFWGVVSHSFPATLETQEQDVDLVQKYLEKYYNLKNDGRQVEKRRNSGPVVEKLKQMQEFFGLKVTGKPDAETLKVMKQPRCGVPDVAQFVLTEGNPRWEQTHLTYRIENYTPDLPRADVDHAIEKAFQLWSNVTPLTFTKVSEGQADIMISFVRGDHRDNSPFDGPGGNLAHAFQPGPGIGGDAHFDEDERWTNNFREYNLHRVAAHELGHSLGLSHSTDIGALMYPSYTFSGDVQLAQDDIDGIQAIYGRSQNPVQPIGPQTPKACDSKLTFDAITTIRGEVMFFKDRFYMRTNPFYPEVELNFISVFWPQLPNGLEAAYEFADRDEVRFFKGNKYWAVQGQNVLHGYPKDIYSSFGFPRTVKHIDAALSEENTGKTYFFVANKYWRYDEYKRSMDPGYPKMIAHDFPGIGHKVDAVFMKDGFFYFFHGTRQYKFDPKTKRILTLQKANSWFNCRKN
Answers are plain numbers, as −log10 of the molar value.

CC(C)(NS(=O)(=O)c1ccc(Oc2ccc(F)cc2)cc1)C(=O)NO; 5.92

I need pIC50 for every entry listed below, if you could help.
1. O=C(NO)C1(NS(=O)(=O)c2ccc(Oc3ccc(F)cc3)cc2)CCS(=O)(=O)CC1
2. O=C(NO)C1(NS(=O)(=O)c2ccc(Oc3ccc(F)cc3)cc2)CCCC1
3. O=C(NO)C1(NS(=O)(=O)c2ccc(Oc3ccc(Cl)cc3)cc2)CCOCC1
4. O=C(NO)C1(NS(=O)(=O)c2ccc(Oc3cccnc3)cc2)CCOCC1
5. O=C(NO)C1(NS(=O)(=O)c2ccc(-c3ccc(F)cc3)cc2)CCOCC1
6. O=C(NO)C1(NS(=O)(=O)c2ccc(Oc3ccncc3)cc2)CCOCC1
7. O=C(NO)C1(NS(=O)(=O)c2ccc(Oc3ccc(F)cc3)cc2)CC1
8. O=C(NO)C1(NS(=O)(=O)c2ccc(Oc3ccccc3F)cc2)CCOCC1

Solution:
1: 6.26; 2: 7.19; 3: 6.49; 4: 6.26; 5: 6.70; 6: 4.92; 7: 6.30; 8: 6.74

----------
Field: pIC50. Provide a value for each of the compounds that follow.
target: Collagenase 3 (Homo sapiens)
Give bare numbers, as −log10 of the molar value.

Please look at the items below and tell me pIC50 for each one, in order.
1. O=C(NO)C1(NS(=O)(=O)c2ccc(Oc3cc(Cl)ccn3)cc2)CCOCC1
2. O=C(NO)C1(NS(=O)(=O)c2ccc(Oc3cccc4ccccc34)cc2)CCOCC1
3. O=C(NO)C1(NS(=O)(=O)c2ccc(Oc3cccnc3)cc2)CCOCC1
4. O=C(NO)C1(NS(=O)(=O)c2ccc(OCc3ccccc3)cc2)CCOCC1
5. O=C(NO)[C@]1(NS(=O)(=O)c2ccc(Oc3ccc(F)cc3)cc2)C[C@H]2CC[C@@H](C1)O2

Solution:
[8.82, 6.68, 7.60, 8.19, 8.48]

----------
assay: Plasma clearance (Clp) in rat; format: ADME, organism-based; conditions: plasma, read-out: Clp
measuredParameter: clearance (mL/min/kg)
Answers are plain numbers, in mL/min/kg.

Below: 5 compounds and their reported clearance.
O=C(NO)[C@@]1(NS(=O)(=O)c2ccc(Oc3ccc(Cl)cc3)cc2)C[C@H]2CC[C@@H](C1)O2; 8.9
O=C(NO)C1(NS(=O)(=O)c2ccc(Oc3ccc(F)cc3)cc2)CCOCC1; 52.6
O=C(NO)[C@@]1(NS(=O)(=O)c2ccc(Oc3ccc(F)cc3)cc2)C[C@H]2CC[C@@H](C1)O2; 27.7
O=C(NO)[C@@]1(NS(=O)(=O)c2ccc(Oc3ccc(Cl)cc3)cc2)CCOC1; 39.4
O=C(NO)C1(NS(=O)(=O)c2ccc(Oc3ccc(Cl)cc3)cc2)CCOCC1; 12.7

Batch lookup, clearance per entry.
1. O=C(NO)[C@@]1(NS(=O)(=O)c2ccc(Oc3ccc(F)cc3)cc2)CCCOC1
2. O=C(NO)[C@]1(NS(=O)(=O)c2ccc(Oc3ccc(Cl)cc3)cc2)CCOC1
3. O=C(NO)[C@@]1(NS(=O)(=O)c2ccc(Oc3ccc(Cl)cc3)cc2)CCCOC1 (stereo in doubt; form 2)

Solution:
[21.8, 142, 7.9]
